# assay.details: Compound exposure in wild-type mice (brain and blood levels)
# Assay type: in vivo, C57BL/6J male mice
# condition.label: male, C57BL/6J, mouse, brain (cerebellum) / blood, ip, Table 9; mice, i.p., one hour after administration; read-out: Brain:blood ratio
So basically, if Kp at 1 h comes in under 3 it's criterion met, and if it's 3 or more it's criterion not met.

Exercise: Report whether reported Kp at 1 h is lower than 3 (strictly) for COC(=O)C1=C(CF)NC2=C(C(=O)OC2)[C@H]1c1cc(F)cc(F)c1[C@H]1CC1(F)F (single isomer, unassigned)
Key: criterion met

Exercise: Report whether reported Kp at 1 h is lower than 3 (strictly) for COC(=O)C1=C(CF)NC2=C(C(=O)OC2)[C@H]1c1cccc(F)c1[C@H]1CC1(F)F (single isomer, unassigned)
Key: criterion met

Exercise: Report whether reported Kp at 1 h is lower than 3 (strictly) for COC(=O)C1=C(CF)NC2=C(C(=O)OC2)[C@H]1c1cccc(F)c1[C@H](F)CF (single isomer, unassigned)
Key: criterion met

Exercise: Report whether reported Kp at 1 h is lower than 3 (strictly) for COC(=O)C1=C(CF)NC2=C(C(=O)OC2)[C@H]1c1cccc(F)c1C(F)F (single isomer, unassigned)
Key: criterion met

Exercise: Report whether reported Kp at 1 h is lower than 3 (strictly) for COC(=O)C1=C(CF)NC2=C(C(=O)OC2)[C@H]1c1cc(F)cc(F)c1C1CC1 (single isomer, unassigned)
Key: criterion not met

Exercise: Report whether reported Kp at 1 h is lower than 3 (strictly) for COC(=O)C1=C(CF)NC2=C(C(=O)OC2)[C@H]1c1cc(F)cc(F)c1C(F)(F)F (single isomer, unassigned)
Key: criterion met
